From: PubChem BioAssay

Experiment: binders of probe aFGF10 on microarray, primary screen, stem cell growth factor project, biochemical, small-molecule microarray, fluorescence 635/667 (AID 1071);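 also: score merges 667 nm spot intensity and signal to noise from triplicate slides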
Settings: higher = more signal
// map composite z-score to label using LOW = under -0.01, MEDIUM = from -0.01 up to 0.5, HIGH = 0.5 and over

1) O=C1c2ccccc2C(=O)c2cc([C@H]3Oc4ccccc4S(=O)(=O)N4CCC[C@@H]34)ccc21 | LOW
2) C#CCN1C(C(=O)OCC)OC[C@H]1c1ccccc1 (some centres undefined) | MEDIUM
3) CC(C)C(=C=CC[C@@H](O)c1ccc(CO)o1)CCO | HIGH
4) NCCCCCCNC(=O)[C@@H]1C[C@@H]2C(=O)N[C@@H](Cc3ccccc3)C(=O)N2[C@@H]1c1ccc(O)cc1 | LOW
5) COCCOC(=O)N1C(=O)[C@@]2(c3cc(C#CCNC(N)=O)ccc31)[C@H](c1ccccc1OCCO)N1[C@H](c3ccccc3)[C@H](c3ccccc3)OC(=O)[C@H]1[C@@H]2C(=O)Nc1nc2ccccc2s1 | MEDIUM
6) COc1ccc([Si](C)(C)[C@@H]2[C@@H](CCn3cc(CCO)nn3)O[C@]3(C(=O)N(Cc4ccc(N5C(=O)c6cccc7cccc5c67)cc4)c4ccccc43)[C@H]2C)cc1 | LOW
7) O=C(NC1CC1)[C@@H]1c2ccccc2C(=O)N(Cc2ccccc2C(F)(F)F)[C@H]1c1ccc(CO)cc1 | MEDIUM
8) COc1ccc(C#Cc2ccc3c(c2)[C@]2(C(=O)N3)[C@H](c3ccc(O)cc3)N3[C@H](c4ccccc4)[C@H](c4ccccc4)OC(=O)[C@H]3[C@@H]2C(N)=O)cc1 | HIGH
9) COCCOC(=O)N1C(=O)[C@@]2(c3cc(C#CCNC(N)=O)ccc31)[C@H](C(=O)NC[C@H](O)c1ccccc1)[C@H]1C(=O)O[C@H](c3ccccc3)[C@H](c3ccccc3)N1[C@@H]2c1ccc(O)cc1 | MEDIUM
10) CCN(CC)c1ccc(N2CC=CC34O[C@@H]5C=CCOC(=O)[C@@H]5[C@H]3C(=O)N(C(C)CO)[C@@H]4C2=O)cc1 (some centres undefined) | LOW
11) CC(C)N1C(=O)c2ccccc2[C@@H](C(=O)NCc2ccccc2)[C@@H]1c1ccc(CO)cc1 | LOW
12) COc1ccc(C#Cc2ccc3c(c2)[C@]2(C(=O)N3)[C@H](c3ccc(O)cc3)N3[C@H](c4ccccc4)[C@H](c4ccccc4)OC(=O)[C@H]3[C@@H]2C(=O)N2CCN(c3ncccn3)CC2)cc1 | MEDIUM
13) CC(C)[C@@H](C(=O)O)n1cc(-c2ccccn2)nn1 | MEDIUM
14) C=C(CCCC)/C(=C/C[C@@H](OC(=O)c1ccncc1)c1ccc(OCCO)cc1)c1cnc2ccccc2c1 | HIGH

====

Tested on: Sam68 (KHDRBS1)
Assay: Sam68 small-molecule binders, primary screen, biochemical, small-molecule microarray, 635 nm fluorescence (AID 1125);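 also: score merges 667 nm channel intensity with signal to noise over triplicate slides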
Settings: small-molecule microarray binding, higher = more signal
Everything with composite z-score lower than 0.5 is not satisfied; everything else, including exactly 0.5, is satisfied.

1. COC(=O)C(CC#Cc1ccc2c(c1)[C@]1(C(=O)N2)[C@H](c2ccccc2OCCO)N2[C@H](c3ccccc3)[C@H](c3ccccc3)OC(=O)[C@H]2[C@@H]1C(=O)N1CCCCCCC1)C(=O)OC | satisfied
2. CC(C)C(=C=CC[C@H](O)c1ccc(OCCO)cc1)C[C@H](O)COCc1ccccc1 | satisfied
3. O=C(NCC(F)(F)F)[C@@H]1c2ccccc2C(=O)N(C2Cc3ccccc3C2)[C@H]1c1ccc(CO)cc1 | not satisfied
4. CC(CO)N1C(=O)[C@@H]2C3C(=O)OCCC/C=C\[C@H]3OC23C=CCN(Cc2ccccc2)C(=O)[C@@H]13 (some centres not stated) | not satisfied
5. O=C1c2ccccc2[C@](Cc2ccccc2I)(C(=O)O)[C@H](c2ccc(CO)cc2)N1Cc1ccccc1Cl | satisfied
6. COc1ccc([Si](C)(C)[C@@H]2[C@@H](CC(=O)N3CCC[C@H]3CO)O[C@]3(C(=O)N(Cc4ccc(N5CCC5=O)cc4)c4ccccc43)[C@H]2C)cc1 | satisfied
7. CC(C)(C)OC(=O)CC[C@@]12N=C(c3ccc(OCCCO)cc3)O[C@@H]1c1ccccc1CN(Cc1ccccc1)C2=O | satisfied
8. C=CCOC(=O)[C@H]1[C@@H]2C(=O)O[C@@H](c3ccccc3)[C@@H](c3ccccc3)N2[C@@H](c2ccc(OCCOC(=O)[C@H]3C[C@H]4C(=O)N5CCC[C@H]5C(=O)N4[C@H]3c3cccc(OCCO)c3)cc2)[C@]12C(=O)Nc1ccccc12 | satisfied
9. COC(=O)[C@@]1(CCC(=O)OC(C)(C)C)COC(c2ccc(OCCCO)cc2)=N1 | not satisfied
10. C=CCN1C(=O)[C@@]2(O[C@@H](CCn3cc(CCO)nn3)[C@H]([Si](C)(C)c3ccc(OC)cc3)[C@H]2C)c2cc(N3C(=O)c4cccc5cccc3c45)ccc21 | satisfied
11. C=CCN1C(=O)[C@@]2(O[C@@H](CCO)[C@H]([Si](C)(C)c3ccc(OC)cc3)[C@H]2C)c2cc(N(C=O)c3ccccc3)ccc21 | satisfied
12. C=C(CCCC)/C(=C/C[C@H](OC(=O)c1ccncc1)c1ccc(CO)o1)c1cnc2ccccc2c1 | satisfied
13. Cc1ccc(S[C@]2(C(=O)NCC(C)C)CC(=O)N(C(C)C)[C@@H]2c2ccc(CO)cc2)cc1 | not satisfied
14. C=C1C=C(Br)C2(OCCCO2)[C@H]2OC12 (some centres not stated) | not satisfied
15. COCCCNC(=O)[C@@]1(Cc2ccccc2CN=[N+]=[N-])COC(c2ccc(OCCCO)cc2)=N1 | satisfied
16. C=CCN1C(=O)[C@]2(O[C@H](CCn3cc([C@H](O)c4ccccc4)nn3)[C@@H]([Si](C)(C)c3ccc(OC)cc3)[C@@H]2C)c2cc(N3CCOC3=O)ccc21 | satisfied
17. COC(=O)c1c2oc(c1C(=O)OC)C(=O)N[C@@H](C(C)C)Cn1nncc1C1(CCCCC1)NC(=O)N[C@H](CO)CC2 | not satisfied
18. C=CCC(OC(C)=O)[C@@H]1[C@@H](N(Cc2cccc3ccccc23)C(=O)Cc2ccc(OC)cc2)c2cc(OCCCO)ccc2N1C(=O)Cc1ccc(OC)cc1 (some centres not stated) | not satisfied
19. CC(C)N1CC=CC23O[C@@H]4/C=C\CCCOC(=O)C4[C@H]2C(=O)N(CCCO)[C@@H]3C1=O (some centres not stated) | not satisfied
20. C=CCC(OC(C)=O)[C@@H]1[C@@H](N(Cc2ccc(-c3cccc(C(F)(F)F)c3)o2)C(=O)c2ccc(-c3ccccc3)cc2)c2cc(OCCCO)ccc2N1C(=O)Cc1ccc(OC)cc1 (some centres not stated) | not satisfied
21. NCCCCCCNC(=O)[C@@H]1C[C@@H]2C(=O)N[C@@H](Cc3ccccc3)C(=O)N2[C@@H]1c1ccc(O)cc1 | satisfied
22. CCCC[C@@H](O)C1=C(C)C[C@H]2C(=O)N(C)C(=O)[C@H]2[C@H]1CO | satisfied
23. CO[C@H]1O[C@H](CO)[C@@H](OC(=O)Nc2ccccc2)[C@H](OC(=O)Nc2ccccc2-c2ccccc2)[C@@H]1OC(=O)Nc1ccccc1-c1ccccc1 | satisfied
24. COc1ccc([Si](C)(C)[C@@H]2[C@@H](CCn3cc([C@H](O)c4ccccc4)nn3)O[C@]3(C(=O)N(C)c4c(Br)cc(C)cc43)[C@H]2C)cc1 | not satisfied
25. CC(C)[C@@H](C(=O)O)n1cc(-c2ccccn2)nn1 | satisfied
